Property: % remaining (60 min); scope: individual molecules
assay-comment: stability test in liver microsomes (rat)
Type: in vitro ADME
conditions-used: 60 min
metric: % remaining (60 min) (%)

# molecule, metric, endpoint-result
records = [
    ("Cc1cc(C[C@@H](NC(=O)N2CCC(c3cc4c([nH]c3=O)SCC4)CC2)C(=O)N2CCN(C3CCN(C)CC3)CC2)cc2cn[nH]c12", "% remaining (60 min)", 90.7),
    ("Cc1cc(C[C@@H](NC(=O)N2CCC(c3cc4c([nH]c3=O)SCCC4)CC2)C(=O)N2CCN(C3CCN(C)CC3)CC2)cc2cn[nH]c12", "% remaining (60 min)", 91.5),
    ("[2H]C([2H])([2H])N1CCC(N2CCN(C(=O)[C@@H](Cc3cc(C)c4[nH]ncc4c3)NC(=O)N3CCC(c4cc5c([nH]c4=O)SCC5)CC3)CC2)CC1", "% remaining (60 min)", 105),
    ("Cc1cc(C[C@@H](NC(=O)N2CCC(c3cc4ccccc4[nH]c3=O)CC2)C(=O)N2CCN(C3CCN(C)CC3)CC2)cc2cn[nH]c12 [Zavegepant, zavegepant, reference compound]", "% remaining (60 min)", 95.5),
]

---

assay-comment: in-vivo pharmacokinetic study on SD rats, intravenous and intranasal administration
conditions-used: rat, plasma, IV@1 mg/kg, read-out: Area under curve AUC

# query-smiles, AUC
data = [
    ("Cc1cc(C[C@@H](NC(=O)N2CCC(c3cc4c([nH]c3=O)SCCC4)CC2)C(=O)N2CCN(C3CCN(C)CC3)CC2)cc2cn[nH]c12", "5990 ng·h/mL"),
]

---

assay-comment: stability test in liver microsomes (human)
Assay type: in vitro ADME
conditions-used: 60 min
Property: % remaining (60 min); scope: individual compounds

# compound, % remaining (60 min) [%]
measured = [
    ("Cc1cc(C[C@@H](NC(=O)N2CCC(c3cc4c([nH]c3=O)SCCC4)CC2)C(=O)N2CCN(C3CCN(C)CC3)CC2)cc2cn[nH]c12", 131),
    ("Cc1cc(C[C@@H](NC(=O)N2CCC(c3cc4c([nH]c3=O)SCC4)CC2)C(=O)N2CCN(C3CCN(C)CC3)CC2)cc2cn[nH]c12", 85.8),
    ("[2H]C([2H])([2H])N1CCC(N2CCN(C(=O)[C@@H](Cc3cc(C)c4[nH]ncc4c3)NC(=O)N3CCC(c4cc5c([nH]c4=O)SCC5)CC3)CC2)CC1", 115),
    ("Cc1cc(C[C@@H](NC(=O)N2CCC(c3cc4ccccc4[nH]c3=O)CC2)C(=O)N2CCN(C3CCN(C)CC3)CC2)cc2cn[nH]c12 [Zavegepant, zavegepant, reference compound]", 57.5),
]

---

system-name: CGRP receptor complex (Homo sapiens, UniProt O60894+Q16602)
Construct: host or cells: SK-N-MC
Sequence (Q16602 23-461): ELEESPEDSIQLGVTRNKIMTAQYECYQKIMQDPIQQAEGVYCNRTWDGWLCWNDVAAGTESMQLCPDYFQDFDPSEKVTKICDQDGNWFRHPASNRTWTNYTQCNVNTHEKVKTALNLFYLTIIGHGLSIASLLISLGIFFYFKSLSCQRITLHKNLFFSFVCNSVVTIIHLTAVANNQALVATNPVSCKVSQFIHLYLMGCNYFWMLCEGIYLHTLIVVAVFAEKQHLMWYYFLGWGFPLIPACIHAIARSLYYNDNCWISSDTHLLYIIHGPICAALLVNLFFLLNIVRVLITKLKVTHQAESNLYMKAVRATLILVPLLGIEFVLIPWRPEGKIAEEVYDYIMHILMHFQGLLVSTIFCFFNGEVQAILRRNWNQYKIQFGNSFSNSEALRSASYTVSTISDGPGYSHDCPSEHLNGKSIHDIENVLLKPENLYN
Sequence (O60894 27-148): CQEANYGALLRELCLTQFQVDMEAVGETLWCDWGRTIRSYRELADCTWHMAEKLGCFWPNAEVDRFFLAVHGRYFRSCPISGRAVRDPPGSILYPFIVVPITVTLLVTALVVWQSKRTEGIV
assay-comment: determination of cell functional antagonism - cAMP determination
Format: cell-based
conditions-used: inhibition of CGRP-stimulated cAMP formation in SK-N-MC cells; read-out: IC50
pIC50: −log10 of the molar value.
metric: pIC50

# molecule, endpoint-result
records = [
    ("Cc1cc(C[C@@H](NC(=O)N2CCC(c3cc4c([nH]c3=O)SCC4)CC2)C(=O)N2CCC(N3CCN(C)CC3)CC2)cc2cn[nH]c12", 9.41),
    ("Cc1cc(C[C@@H](NC(=O)N2CCC(c3cc4c([nH]c3=O)CCS4)CC2)C(=O)N2CCN(C3CCN(C)CC3)CC2)cc2cn[nH]c12", 7.81),
    ("Cc1cc(C[C@@H](NC(=O)N2CCC(c3cc4c([nH]c3=O)SCC4)CC2)C(=O)N2CCC(N3CCCCC3)CC2)cc2cn[nH]c12", 9.43),
    ("Cc1cc(C[C@@H](NC(=O)N2CCC(c3cc4c([nH]c3=O)SCC4)CC2)C(=O)N2CCN(C3CCNCC3)CC2)cc2cn[nH]c12", 10.15),
    ("Cc1cc(C[C@@H](NC(=O)N2CCC(c3cc4c([nH]c3=O)CSC4)CC2)C(=O)N2CCN(C3CCN(C)CC3)CC2)cc2cn[nH]c12", 8.11),
    ("Cc1cc(C[C@@H](NC(=O)N2CCC(c3cc4c([nH]c3=O)SCCC4)CC2)C(=O)N2C3CCC2CC(N2CCCCC2)C3)cc2cn[nH]c12 (stereo partly drawn)", 9.89),
    ("Cc1cc(C[C@@H](NC(=O)N2CCC(c3cc4c([nH]c3=O)SCCC4)CC2)C(=O)N2CCN(C3CCNCC3)CC2)cc2cn[nH]c12", 9.85),
    ("Cc1cc(CC(OC(=O)N2CCC(c3cc4c([nH]c3=O)SCC4)CC2)C(=O)N2CCN(C3CCN(C)CC3)CC2)cc2cn[nH]c12 (stereo not drawn)", 9.57),
    ("Cc1cc(C[C@@H](NC(=O)N2CCC(c3cc4c([nH]c3=O)SCCC4)CC2)C(=O)N2CCC(C)(N3CCCCC3)CC2)cc2cn[nH]c12", 8.99),
    ("Cc1cc(CC(CC(=O)N2CCC(c3cc4c([nH]c3=O)SCCC4)CC2)C(=O)N2CCN(C3CCN(C)CC3)CC2)cc2cn[nH]c12 (stereo not drawn)", 8.91),
    ("Cc1cc(C[C@@H](NC(=O)N2CCC(c3cc4c([nH]c3=O)SCCC4)CC2)C(=O)N2CC3CC2CC3N2CCCCC2)cc2cn[nH]c12 (stereo partly drawn)", 8.46),
    ("Cc1cc(C[C@@H](NC(=O)N2CCC(c3cc4c([nH]c3=O)CCCC4)CC2)C(=O)N2CCN(C3CCN(C)CC3)CC2)cc2cn[nH]c12", 8.98),
]
